Target: PASK (UniProt #Q96RG2; human recombinant N-terminal GST tagged construct, residues 879-1323) (Homo sapiens, UniProt Q96RG2)
Construct: N-terminal GST tagged construct, residues 879-1323; GST (N)
Sequence (Q96RG2 879-1323, change not shown): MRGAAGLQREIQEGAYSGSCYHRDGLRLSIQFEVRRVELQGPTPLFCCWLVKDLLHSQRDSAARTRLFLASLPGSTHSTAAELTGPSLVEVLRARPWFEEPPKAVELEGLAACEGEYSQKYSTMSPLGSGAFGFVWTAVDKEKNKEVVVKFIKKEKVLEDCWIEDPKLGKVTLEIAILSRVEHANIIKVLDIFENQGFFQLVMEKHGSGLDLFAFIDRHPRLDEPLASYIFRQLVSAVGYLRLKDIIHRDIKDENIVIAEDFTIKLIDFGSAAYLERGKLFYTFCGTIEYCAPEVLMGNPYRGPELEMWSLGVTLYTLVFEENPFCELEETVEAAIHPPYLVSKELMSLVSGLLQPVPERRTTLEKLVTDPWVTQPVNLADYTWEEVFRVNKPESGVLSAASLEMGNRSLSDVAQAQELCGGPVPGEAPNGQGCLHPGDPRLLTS
Assay: 33P-ATP radiometric PASK kinase assay (P81 phosphocellulose, scintillation counting)
Conditions: Table 2, Myelin Basic Protein 20 μM, 120 min room temperature, average of all trials, read-out: IC50 Kinase Domain
Procedure: Purified PASK (UniProt #Q96RG2; human recombinant N-terminal GST tagged construct, residues 879-1323) from insect cells (final concentration 5 nM) is added to freshly prepared Base Reaction Buffer containing 20 mM Hepes (pH 7.5), 10 mM MgCl2, 1 mM EGTA, 0.02% Brij35, 0.02 mg/ml BSA, 0.1 mM Na3VO4, 2 mM DTT, 1% DMSO and Myelin Basic Protein (20 μM final). […]
pIC50: −log10 of the molar value.
Quick reference: pIC50 of the listed items.

# SMILES_REPR, pIC50
measured = [
    ("N#Cc1ccc(-c2nc3cc(C(=O)O)ccc3nc2-c2ccccc2)cc1", "≥ 5.00"),
    ("O=C(O)c1ccc2nc(-c3ccccc3)c(-c3ccc([N+](=O)[O-])cc3)nc2c1", "≥ 5.00"),
    ("Cc1ccc(-c2nc3cc(C(=O)O)ccc3nc2-c2ccccc2)cc1", "≥ 5.00"),
    ("O=C(O)c1ccc2nc(-c3ccccc3)c(-c3ccncc3)nc2c1", "≥ 5.00"),
    ("CCc1nc2cc(C(=O)O)ccc2nc1-c1ccccc1", "≤ 5.00"),
    ("COc1ccc(-c2nc3cc(C(=O)O)ccc3nc2-c2ccccc2)c(OC)c1", "≥ 5.00"),
    ("O=C(O)c1ccc2nc(-c3ccccc3)c(-c3ccccc3-c3ccccc3)nc2c1", "≤ 5.00"),
    ("O=C(O)c1ccc(-c2nc3cc(C(=O)O)ccc3nc2-c2ccccc2)cc1", "≤ 5.00"),
    ("O=C(O)c1ccc2nc(-c3ccccc3)c(-c3ccc(CO)cc3)nc2c1", "≥ 5.00"),
    ("COc1ccc(-c2nc3cc(O)c(C(=O)O)cc3nc2-c2ccc(OC)cc2)cc1", "≥ 5.00"),
    ("O=C(O)c1ccc2nc(-c3ccccc3)c(-c3ccc(-c4ccccc4)cc3)nc2c1", "≥ 5.00"),
    ("Cc1ccccc1-c1nc2cc(C(=O)O)ccc2nc1-c1ccccc1", "≥ 5.00"),
    ("O=C(O)c1ccc2nc(-c3ccccc3)c(-c3ccc(O)cc3)nc2c1", "≥ 5.00"),
    ("Cc1cccc(-c2nc3cc(C(=O)O)ccc3nc2-c2ccccc2)c1", "≥ 5.00"),
    ("O=C(O)c1ccc2nc(-c3ccccc3)c(-c3ccc(OC(F)(F)F)cc3)nc2c1", "≥ 5.00"),
    ("O=C(O)c1ccc2nc(-c3ccccc3)c(-c3cccc4ccccc34)nc2c1", "≥ 5.00"),
    ("O=C(O)c1ccc2nc(-c3ccccc3)c(-c3cccc(F)c3)nc2c1", "≥ 5.00"),
    ("CCOc1ccc(-c2nc3cc(C(=O)O)ccc3nc2-c2ccccc2)cc1", "≥ 5.00"),
    ("O=C(O)c1ccc2nc(-c3ccccc3)c(-c3ccsc3)nc2c1", "≥ 5.00"),
    ("O=C(O)c1ccc2nc(-c3ccccc3)c(-c3cccc(OC(F)(F)F)c3)nc2c1", "≥ 5.00"),
    ("O=C(O)c1cc2nc(-c3ccc(O)cc3)c(-c3ccc(O)cc3)nc2cc1O", "≥ 5.00"),
    ("O=C(O)c1ccc2nc(-c3ccccc3)c(-c3cccc(O)c3)nc2c1", "≥ 5.00"),
    ("O=C(O)c1ccc2nc(-c3ccccc3)c(-c3ccoc3)nc2c1", "≥ 5.00"),
    ("COc1ccc(-c2nc3cc(C(=O)O)ccc3nc2-c2ccccc2)cc1", "≥ 5.00"),
    ("O=C(O)c1cc2nc(-c3ccc(F)cc3)c(-c3ccc(F)cc3)nc2cc1O", "≥ 5.00"),
    ("CC(C)(C)c1ccc(-c2nc3cc(C(=O)O)ccc3nc2-c2ccccc2)cc1", "≥ 5.00"),
    ("O=C(O)c1ccc2nc(-c3ccccc3)c(-c3ccc4c(c3)OCO4)nc2c1", "≥ 5.00"),
    ("O=C(O)c1ccc2nc(-c3ccccc3)c(-c3ccc(Cl)cc3)nc2c1", "≥ 5.00"),
]
